Molecular target: ALK tyrosine kinase receptor (Homo sapiens, UniProt Q9UM73)
Assay: Inhibition of recombinant human ALK
OBSERVABLE: IC50 (µM)

{"COMPOUND": "Cc1ccc(O)cc1CC[C@@H]1C(=O)CC[C@]2(C)[C@@H]([C@H](C)/C=C/CC(C)C)CC[C@@H]12", "ASSAY TARGET": "ALK tyrosine kinase receptor (Homo sapiens, UniProt Q9UM73)", "IC50, µM": 4.16}
{"COMPOUND": "Cc1ccc(O)cc1CC[C@@H]1[C@@H](O)CC[C@]2(C)[C@@H]([C@H](C)/C=C/CC(C)C)CC[C@@H]12 (relative stereo)", "ASSAY TARGET": "ALK tyrosine kinase receptor (Homo sapiens, UniProt Q9UM73)", "IC50, µM": 9.33}

a = Cc1ccc(O)cc1CC[C@@H]1[C@H](O)CC[C@]2(C)[C@@H]([C@H](C)CCCC(C)C)CC[C@@H]12
b = C=C(CC[C@@H](C)[C@H]1CC[C@H]2[C@H](CCc3cc(O)ccc3C)C(=O)CC[C@]12C)C(C)C
Qu. Could you please tell me which of these two has the higher IC50: a or b ? # answer = label of selected item
Ans. a

====

Biological target: Proto-oncogene tyrosine-protein kinase Src (Homo sapiens)
Sequence (P12931 2-536 limits assumed): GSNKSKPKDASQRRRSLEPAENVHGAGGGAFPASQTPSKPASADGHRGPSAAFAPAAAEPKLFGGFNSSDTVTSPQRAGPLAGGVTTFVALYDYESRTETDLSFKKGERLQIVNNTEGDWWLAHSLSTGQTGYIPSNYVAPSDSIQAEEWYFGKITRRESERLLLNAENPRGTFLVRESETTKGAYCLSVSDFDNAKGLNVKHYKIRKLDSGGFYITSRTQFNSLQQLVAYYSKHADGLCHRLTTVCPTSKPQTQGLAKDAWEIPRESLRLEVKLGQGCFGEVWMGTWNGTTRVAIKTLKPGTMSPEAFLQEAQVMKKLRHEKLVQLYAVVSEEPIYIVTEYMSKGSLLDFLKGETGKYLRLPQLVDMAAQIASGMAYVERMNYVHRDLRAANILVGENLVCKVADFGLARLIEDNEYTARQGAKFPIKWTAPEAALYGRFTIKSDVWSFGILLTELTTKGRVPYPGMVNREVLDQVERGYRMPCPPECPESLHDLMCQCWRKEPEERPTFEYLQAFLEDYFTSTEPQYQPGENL
Experiment: Inhibition of recombinant human SRC using poly(Glu,Tyr)4:1 as substrate
pIC50: −log10 of the molar value.
OBSERVABLE: pIC50

{"MOLECULE": "Cc1ccc(O)cc1CC[C@@H]1[C@H](O)CC[C@]2(C)[C@@H]([C@H](C)CCCC(C)C)CC[C@@H]12", "pIC50": 5.72}
{"MOLECULE": "Cc1ccc(O)cc1CC[C@@H]1[C@@H](O)CC[C@]2(C)[C@@H]([C@H](C)/C=C/CC(C)C)CC[C@@H]12 (relative stereo)", "pIC50": 5.62}
{"MOLECULE": "C=C(CC[C@@H](C)[C@H]1CC[C@H]2[C@H](CCc3cc(O)ccc3C)C(=O)CC[C@]12C)C(C)C", "pIC50": 5.83}
{"MOLECULE": "Cc1ccc(O)cc1CC[C@@H]1C(=O)CC[C@]2(C)[C@@H]([C@H](C)/C=C/CC(C)C)CC[C@@H]12", "pIC50": 5.65}
{"MOLECULE": "Cc1ccc(O)cc1CC[C@@H]1C(=O)CC[C@]2(C)[C@@H]([C@H](C)CCCC(C)C)CC[C@@H]12", "pIC50": 5.66}

====

Target: Tyrosine-protein kinase receptor UFO (Homo sapiens)
Assay: Inhibition of recombinant human AXL
pIC50: −log10 of the molar value.
OBSERVABLE: pIC50

{"COMPOUND": "Cc1ccc(O)cc1CC[C@@H]1C(=O)CC[C@]2(C)[C@@H]([C@H](C)CCCC(C)C)CC[C@@H]12", "pIC50": 4.49}
{"COMPOUND": "Cc1ccc(O)cc1CC[C@@H]1[C@H](O)CC[C@]2(C)[C@@H]([C@H](C)CCCC(C)C)CC[C@@H]12", "pIC50": 4.77}
{"COMPOUND": "Cc1ccc(O)cc1CC[C@@H]1C(=O)CC[C@]2(C)[C@@H]([C@H](C)/C=C/CC(C)C)CC[C@@H]12", "pIC50": 4.83}
{"COMPOUND": "C=C(CC[C@@H](C)[C@H]1CC[C@H]2[C@H](CCc3cc(O)ccc3C)C(=O)CC[C@]12C)C(C)C", "pIC50": 4.69}
{"COMPOUND": "Cc1ccc(O)cc1CC[C@@H]1[C@@H](O)CC[C@]2(C)[C@@H]([C@H](C)/C=C/CC(C)C)CC[C@@H]12 (relative stereo)", "pIC50": 4.66}

====

Molecular target: Hepatocyte growth factor receptor (Homo sapiens, UniProt P08581)
Sequence (P08581 whole entry): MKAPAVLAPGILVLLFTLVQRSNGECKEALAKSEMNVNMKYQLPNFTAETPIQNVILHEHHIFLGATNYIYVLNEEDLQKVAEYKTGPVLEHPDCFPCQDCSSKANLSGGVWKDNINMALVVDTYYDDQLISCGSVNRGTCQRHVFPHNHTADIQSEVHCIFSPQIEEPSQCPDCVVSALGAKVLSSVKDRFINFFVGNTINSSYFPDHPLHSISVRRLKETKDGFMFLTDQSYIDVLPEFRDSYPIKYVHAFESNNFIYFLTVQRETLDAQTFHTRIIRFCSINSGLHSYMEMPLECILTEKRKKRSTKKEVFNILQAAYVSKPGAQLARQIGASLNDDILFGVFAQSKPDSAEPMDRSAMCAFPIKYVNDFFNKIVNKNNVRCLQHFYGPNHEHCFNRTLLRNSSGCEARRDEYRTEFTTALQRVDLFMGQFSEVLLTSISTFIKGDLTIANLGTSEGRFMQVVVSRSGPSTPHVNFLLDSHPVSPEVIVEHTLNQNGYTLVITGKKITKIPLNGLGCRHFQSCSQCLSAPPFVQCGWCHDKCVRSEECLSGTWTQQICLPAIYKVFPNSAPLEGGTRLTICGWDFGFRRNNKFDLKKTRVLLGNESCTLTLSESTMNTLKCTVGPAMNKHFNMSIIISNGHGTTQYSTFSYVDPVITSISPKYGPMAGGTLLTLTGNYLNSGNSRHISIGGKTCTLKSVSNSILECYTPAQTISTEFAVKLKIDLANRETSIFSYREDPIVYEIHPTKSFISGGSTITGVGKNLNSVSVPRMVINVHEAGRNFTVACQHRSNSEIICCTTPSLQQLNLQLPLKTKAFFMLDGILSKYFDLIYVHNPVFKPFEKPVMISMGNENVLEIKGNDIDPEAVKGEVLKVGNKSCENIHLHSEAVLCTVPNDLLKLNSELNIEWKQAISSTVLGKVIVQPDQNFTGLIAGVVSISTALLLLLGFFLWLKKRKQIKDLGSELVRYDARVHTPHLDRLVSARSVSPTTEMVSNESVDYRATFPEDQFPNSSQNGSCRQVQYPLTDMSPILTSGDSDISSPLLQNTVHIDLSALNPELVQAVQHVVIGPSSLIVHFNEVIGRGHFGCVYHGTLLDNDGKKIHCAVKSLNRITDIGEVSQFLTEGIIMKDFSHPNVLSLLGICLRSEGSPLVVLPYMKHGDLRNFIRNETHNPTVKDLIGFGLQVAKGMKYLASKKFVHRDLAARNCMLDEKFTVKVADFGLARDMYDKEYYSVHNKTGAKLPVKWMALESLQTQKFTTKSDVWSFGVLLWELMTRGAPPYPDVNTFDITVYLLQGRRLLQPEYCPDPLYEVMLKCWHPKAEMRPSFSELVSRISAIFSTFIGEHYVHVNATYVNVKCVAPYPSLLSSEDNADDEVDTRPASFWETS
OBSERVABLE: IC50 (µM)

A = C=C(CC[C@@H](C)[C@H]1CC[C@H]2[C@H](CCc3cc(O)ccc3C)C(=O)CC[C@]12C)C(C)C
B = Cc1ccc(O)cc1CC[C@@H]1[C@H](O)CC[C@]2(C)[C@@H]([C@H](C)CCCC(C)C)CC[C@@H]12
Qu. # return whichever of A and B has the smaller IC50 # answer = label of selected item
Ans. A

====

Molecular target: Aurora kinase B (Homo sapiens)
Sequence (Q96GD4 whole entry): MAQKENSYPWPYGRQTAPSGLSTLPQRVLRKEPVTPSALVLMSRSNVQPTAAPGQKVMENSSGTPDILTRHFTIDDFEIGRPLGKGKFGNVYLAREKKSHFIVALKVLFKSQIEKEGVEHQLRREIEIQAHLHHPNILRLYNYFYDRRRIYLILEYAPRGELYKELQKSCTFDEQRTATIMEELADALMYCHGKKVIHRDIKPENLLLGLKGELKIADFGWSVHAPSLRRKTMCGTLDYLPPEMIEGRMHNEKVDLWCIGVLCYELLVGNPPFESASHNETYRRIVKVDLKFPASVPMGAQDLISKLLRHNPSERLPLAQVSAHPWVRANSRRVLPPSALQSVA
Assay: Inhibition of recombinant human Aurora-B using tetra(LRRWLSG) as substrate
The entries below are paired with their reported IC50.

Consider the reported IC50 for these molecules:
{"MOLECULE": "C=C(CC[C@@H](C)[C@H]1CC[C@H]2[C@H](CCc3cc(O)ccc3C)C(=O)CC[C@]12C)C(C)C", "IC50": "> 100 µM"}
{"MOLECULE": "Cc1ccc(O)cc1CC[C@@H]1C(=O)CC[C@]2(C)[C@@H]([C@H](C)CCCC(C)C)CC[C@@H]12 [CALICOFEROL E]", "IC50": "> 100 µM"}

From here, focus on the item given below.
Qu. Please look up its IC50: Cc1ccc(O)cc1CC[C@@H]1C(=O)CC[C@]2(C)[C@@H]([C@H](C)CCCC(C)C)[C@@H](O)C[C@@H]12 [CALICOFEROL I]
Ans. > 100 µM

====

Molecular target: Insulin-like growth factor 1 receptor (Homo sapiens, UniProt P08069)
Sequence (P08069 31-736 limits assumed): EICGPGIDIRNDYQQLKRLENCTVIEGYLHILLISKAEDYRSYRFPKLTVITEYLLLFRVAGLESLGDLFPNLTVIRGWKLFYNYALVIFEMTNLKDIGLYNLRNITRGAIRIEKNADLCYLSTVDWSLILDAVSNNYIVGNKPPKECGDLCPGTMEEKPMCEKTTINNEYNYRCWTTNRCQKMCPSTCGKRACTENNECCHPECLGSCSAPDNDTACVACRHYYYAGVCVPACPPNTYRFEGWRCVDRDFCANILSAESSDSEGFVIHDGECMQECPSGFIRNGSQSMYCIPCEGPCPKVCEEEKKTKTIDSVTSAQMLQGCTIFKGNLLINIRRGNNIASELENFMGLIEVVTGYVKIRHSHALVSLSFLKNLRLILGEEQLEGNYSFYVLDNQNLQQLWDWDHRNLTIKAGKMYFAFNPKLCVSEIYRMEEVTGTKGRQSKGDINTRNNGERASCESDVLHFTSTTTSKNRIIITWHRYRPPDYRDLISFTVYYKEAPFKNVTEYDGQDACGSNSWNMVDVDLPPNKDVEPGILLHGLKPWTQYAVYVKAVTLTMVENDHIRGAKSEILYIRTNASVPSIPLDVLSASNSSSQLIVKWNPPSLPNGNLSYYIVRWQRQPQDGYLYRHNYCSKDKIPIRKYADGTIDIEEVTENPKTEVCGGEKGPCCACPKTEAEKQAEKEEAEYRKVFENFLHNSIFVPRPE
Sequence (P08069 741-1367 limits assumed): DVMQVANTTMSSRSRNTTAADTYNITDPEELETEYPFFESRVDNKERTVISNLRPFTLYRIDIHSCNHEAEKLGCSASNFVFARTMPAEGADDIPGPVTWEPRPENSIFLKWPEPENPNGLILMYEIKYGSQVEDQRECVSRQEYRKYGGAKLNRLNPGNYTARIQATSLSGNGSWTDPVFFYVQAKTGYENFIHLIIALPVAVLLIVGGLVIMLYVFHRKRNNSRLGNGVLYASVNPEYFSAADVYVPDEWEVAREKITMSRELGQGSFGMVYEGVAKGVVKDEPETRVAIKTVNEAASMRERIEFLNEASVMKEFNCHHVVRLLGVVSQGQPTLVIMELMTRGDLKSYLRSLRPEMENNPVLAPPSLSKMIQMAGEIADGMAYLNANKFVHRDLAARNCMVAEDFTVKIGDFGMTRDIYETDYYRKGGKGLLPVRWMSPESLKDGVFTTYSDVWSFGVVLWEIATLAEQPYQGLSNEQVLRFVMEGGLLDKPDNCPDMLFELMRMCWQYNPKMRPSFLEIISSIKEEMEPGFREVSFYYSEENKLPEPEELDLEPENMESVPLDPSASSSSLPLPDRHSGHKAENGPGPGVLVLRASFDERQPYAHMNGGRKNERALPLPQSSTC
Assay: Inhibition of recombinant human IGF1-R using poly(Glu,Tyr)4:1 as substrate
The entries below are paired with their reported IC50.

Consider the reported IC50 for these compounds:
{"GIVEN SMILES": "Cc1ccc(O)cc1CC[C@@H]1C(=O)CC[C@]2(C)[C@@H]([C@H](C)CCCC(C)C)[C@@H](O)C[C@@H]12", "ASSAY TARGET": "Insulin-like growth factor 1 receptor (Homo sapiens, UniProt P08069)", "IC50": "> 100 µM"}
{"GIVEN SMILES": "C=C(CC[C@@H](C)[C@H]1CC[C@H]2[C@H](CCc3cc(O)ccc3C)[C@H](O)CC[C@]12C)C(C)C", "ASSAY TARGET": "Insulin-like growth factor 1 receptor (Homo sapiens, UniProt P08069)", "IC50": "> 100 µM"}

From here, focus on the item given below.
Qu. Please look up its IC50: Cc1ccc(O)cc1CC[C@@H]1[C@H](O)CC[C@]2(C)[C@@H]([C@H](C)CCCC(C)C)[C@@H](O)C[C@@H]12
Ans. > 100 µM

====

The entries below are paired with their reported IC50.
Target: Vascular endothelial growth factor receptor 2 (Homo sapiens, UniProt P35968)
Sequence (P35968 whole entry): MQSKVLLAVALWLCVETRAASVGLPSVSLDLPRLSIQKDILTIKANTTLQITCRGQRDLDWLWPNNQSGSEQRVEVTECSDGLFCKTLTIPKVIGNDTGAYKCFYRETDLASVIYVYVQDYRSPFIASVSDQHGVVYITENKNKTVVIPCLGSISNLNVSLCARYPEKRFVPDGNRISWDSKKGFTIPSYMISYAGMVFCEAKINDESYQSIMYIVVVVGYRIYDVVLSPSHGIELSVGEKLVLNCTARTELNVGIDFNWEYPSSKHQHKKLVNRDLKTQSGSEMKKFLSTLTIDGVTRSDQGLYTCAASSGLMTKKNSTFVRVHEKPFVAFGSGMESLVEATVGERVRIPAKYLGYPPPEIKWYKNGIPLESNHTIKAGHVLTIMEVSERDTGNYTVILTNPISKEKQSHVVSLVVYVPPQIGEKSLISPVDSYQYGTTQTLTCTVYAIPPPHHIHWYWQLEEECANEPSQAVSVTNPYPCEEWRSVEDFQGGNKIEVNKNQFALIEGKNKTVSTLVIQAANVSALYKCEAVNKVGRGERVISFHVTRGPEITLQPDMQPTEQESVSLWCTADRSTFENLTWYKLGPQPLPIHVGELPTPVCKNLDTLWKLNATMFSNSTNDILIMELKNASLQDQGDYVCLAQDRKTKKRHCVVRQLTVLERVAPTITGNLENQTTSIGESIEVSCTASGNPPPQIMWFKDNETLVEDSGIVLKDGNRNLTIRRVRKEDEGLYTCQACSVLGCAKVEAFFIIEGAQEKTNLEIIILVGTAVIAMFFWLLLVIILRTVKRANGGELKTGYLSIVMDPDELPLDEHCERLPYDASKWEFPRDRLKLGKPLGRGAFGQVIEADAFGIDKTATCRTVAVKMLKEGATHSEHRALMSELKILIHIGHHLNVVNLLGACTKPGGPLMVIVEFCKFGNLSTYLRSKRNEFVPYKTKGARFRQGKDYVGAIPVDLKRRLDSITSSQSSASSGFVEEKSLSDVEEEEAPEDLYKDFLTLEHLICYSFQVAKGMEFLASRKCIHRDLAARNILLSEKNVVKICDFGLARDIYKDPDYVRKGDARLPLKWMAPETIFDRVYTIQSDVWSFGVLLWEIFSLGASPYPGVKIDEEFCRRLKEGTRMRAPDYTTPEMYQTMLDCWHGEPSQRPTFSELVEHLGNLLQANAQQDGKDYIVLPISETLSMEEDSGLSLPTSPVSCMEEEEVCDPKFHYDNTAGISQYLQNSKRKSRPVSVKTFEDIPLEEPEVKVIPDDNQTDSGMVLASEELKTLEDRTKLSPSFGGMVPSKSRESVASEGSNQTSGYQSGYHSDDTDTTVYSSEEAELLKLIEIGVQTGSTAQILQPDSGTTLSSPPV
Test: Inhibition of recombinant human VEGF-R2 using poly(Glu,Tyr)4:1 as substrate

Consider the reported IC50 for these compounds:
{"GIVEN SMILES": "Cc1ccc(O)cc1CC[C@@H]1C(=O)CC[C@]2(C)[C@@H]([C@H](C)CCCC(C)C)[C@@H](O)C[C@@H]12", "ASSAY TARGET": "Vascular endothelial growth factor receptor 2 (Homo sapiens, UniProt P35968)", "OBSERVABLE": "IC50", "DATA VALUE": "> 100 µM"}
{"GIVEN SMILES": "Cc1ccc(O)cc1CC[C@@H]1[C@H](O)CC[C@]2(C)[C@@H]([C@H](C)CCCC(C)C)[C@@H](O)C[C@@H]12", "ASSAY TARGET": "Vascular endothelial growth factor receptor 2 (Homo sapiens, UniProt P35968)", "OBSERVABLE": "IC50", "DATA VALUE": "> 100 µM"}

Qu. Please look up its IC50: C=C(CC[C@@H](C)[C@H]1CC[C@H]2[C@H](CCc3cc(O)ccc3C)[C@H](O)CC[C@]12C)C(C)C
Ans. > 100 µM

====

Molecular target: UniProtKB P12931
Experiment: Inhibition of recombinant human SRC using poly(Glu,Tyr)4:1 as substrate
pIC50: −log10 of the molar value.
OBSERVABLE: pIC50

Consider the reported pIC50 for these compounds:
{"GIVEN SMILES": "C=C(CC[C@@H](C)[C@H]1CC[C@H]2[C@H](CCc3cc(O)ccc3C)[C@H](O)CC[C@]12C)C(C)C", "pIC50": "< 4.00"}
{"GIVEN SMILES": "Cc1ccc(O)cc1CC[C@@H]1[C@H](O)CC[C@]2(C)[C@@H]([C@H](C)CCCC(C)C)[C@@H](O)C[C@@H]12", "pIC50": "< 4.00"}

Qu. Test system UniProtKB P12931; read-out pIC50; what value for Cc1ccc(O)cc1CC[C@@H]1C(=O)CC[C@]2(C)[C@@H]([C@H](C)CCCC(C)C)[C@@H](O)C[C@@H]12 ?
Ans. < 4.00

====

Molecular target: Tyrosine-protein kinase receptor UFO (Homo sapiens, UniProt P30530)
Sequence (P30530 whole entry): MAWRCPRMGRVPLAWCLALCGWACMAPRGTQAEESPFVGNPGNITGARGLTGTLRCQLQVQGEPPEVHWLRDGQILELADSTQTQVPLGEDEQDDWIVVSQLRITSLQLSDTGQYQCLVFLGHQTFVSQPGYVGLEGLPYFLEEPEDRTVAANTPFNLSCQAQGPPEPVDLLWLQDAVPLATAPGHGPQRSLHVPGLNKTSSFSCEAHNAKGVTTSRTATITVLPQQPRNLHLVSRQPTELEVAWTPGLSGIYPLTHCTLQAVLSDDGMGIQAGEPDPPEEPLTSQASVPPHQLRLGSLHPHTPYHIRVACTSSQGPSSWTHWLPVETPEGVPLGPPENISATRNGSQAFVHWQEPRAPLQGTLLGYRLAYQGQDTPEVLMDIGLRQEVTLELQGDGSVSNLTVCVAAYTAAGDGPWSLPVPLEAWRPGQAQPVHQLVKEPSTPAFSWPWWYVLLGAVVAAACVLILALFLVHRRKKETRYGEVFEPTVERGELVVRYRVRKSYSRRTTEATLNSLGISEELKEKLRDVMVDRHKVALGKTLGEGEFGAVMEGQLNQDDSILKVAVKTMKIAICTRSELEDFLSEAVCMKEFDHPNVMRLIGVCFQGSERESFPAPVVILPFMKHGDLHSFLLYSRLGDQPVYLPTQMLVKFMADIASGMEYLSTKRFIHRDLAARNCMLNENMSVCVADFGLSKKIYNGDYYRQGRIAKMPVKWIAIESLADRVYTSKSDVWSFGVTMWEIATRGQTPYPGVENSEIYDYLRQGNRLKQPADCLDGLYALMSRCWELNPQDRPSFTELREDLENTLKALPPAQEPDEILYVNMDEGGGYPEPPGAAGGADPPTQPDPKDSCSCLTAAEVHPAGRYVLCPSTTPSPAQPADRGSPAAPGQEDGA
Test: Inhibition of recombinant human AXL
The entries below are paired with their reported IC50.

Consider the reported IC50 for these molecules:
{"GIVEN SMILES": "Cc1ccc(O)cc1CC[C@@H]1C(=O)CC[C@]2(C)[C@@H]([C@H](C)CCCC(C)C)[C@@H](O)C[C@@H]12", "ASSAY TARGET": "Tyrosine-protein kinase receptor UFO (Homo sapiens, UniProt P30530)", "OBSERVABLE": "IC50", "DATA VALUE": "> 100 µM"}
{"GIVEN SMILES": "Cc1ccc(O)cc1CC[C@@H]1[C@H](O)CC[C@]2(C)[C@@H]([C@H](C)CCCC(C)C)[C@@H](O)C[C@@H]12", "ASSAY TARGET": "Tyrosine-protein kinase receptor UFO (Homo sapiens, UniProt P30530)", "OBSERVABLE": "IC50", "DATA VALUE": "> 100 µM"}

From here, focus on the item given below.
Qu. Please look up its IC50: C=C(CC[C@@H](C)[C@H]1CC[C@H]2[C@H](CCc3cc(O)ccc3C)[C@H](O)CC[C@]12C)C(C)C
Ans. > 100 µM
